# measurement-protocol: FP purification and fluorescence characterization in vitro (spectra, extinction coefficient, quantum yield)
# Type: physicochemical
endpoint-label: extinction coefficient (EC)

Challenge: // returns reported extinction coefficient (EC) for input R10-10: evolved APCα FP, SEQ ID NO: 11, with BV (protein, biliverdin chromophore; smRUFP Variant Polypeptide) MKTCEQRVNIATLLTENKKKIVDKASQDLWRRHPDLIAPGGIAFSQRDRALCLRDYGWYLHLITFCLLAGDKGPIESIGLIGIREMYNSLGVPVPAMMESIRCLKEASLSLLDEEDANETAPYFDYIIKAMS
Response given: 200,000 M^−1cm^−1

Challenge: // query: R8-8: evolved APCα FP, SEQ ID NO: 9, with BV (protein, biliverdin chromophore; smRUFP Variant Polypeptide) MKTCEQRVKIATLLSENKKKIVDKASQDLWRRHPDLIAPGGIAFSQRDRALCLRDYGWYLHLITFCLLAGDKGPIESIGLIGIREMYNSLGVPVPAMMESIRCLKEASLSLLDEEDANETAPYFDYIIKAMS
Response given: 260,000 M^−1cm^−1

Challenge: // query: R6-6: evolved APCα FP, SEQ ID NO: 7, with BV (protein, biliverdin chromophore; smRUFP Variant Polypeptide) MKTCEQRVKIATLLSENEKKIVDKASQDLWRRRPDLIAPGGIAFSQRERALCLRDYGWYLHLITFCLLAGDKGPIESIGLIGIREMYNSLGVPVPGMMESIRCLKEASLSLLDEEDAKETAPYFDYIIKAMS
Response given: 190,000 M^−1cm^−1

Challenge: // query: R8-9: evolved APCα FP, SEQ ID NO: 10, with BV (protein, biliverdin chromophore; smRUFP Variant Polypeptide) MKTCEQRVNIATLLSENKKKIVDKASQDLWRRRPDLIAPGGIAFSQRDRALCLRDYGWYLHLITFCLLAGDKGPIESIGLIGIREMYNSLGVPVPDMMESIRCLKEASLSLLDEEDAKETAPYFDYIIKAMS
Response given: 175,000 M^−1cm^−1

Challenge: // query: R4-1: evolved APCα FP, SEQ ID NO: 5, with BV (protein, biliverdin chromophore; smRUFP Variant Polypeptide) MKTGEQRVKIATLLSENEKKIVDKASQDLWRRRPDFIAPGGIAFSQRERALCLRDYRWYLHLITFCLLAGDKDPIESIGLIGIREMYNSLGVPVPGMMESIRCLKEASLSLLDEEDAKETAPYFDYIIKAMS
Response given: 93,000 M^−1cm^−1

Challenge: // query: R3-2 + PCB: evolved APCα FP, SEQ ID NO: 4, with PCB (protein, phycocyanobilin chromophore; smRUFP Variant Polypeptide) MKTGEQRVKIATLLSENEKKIVDKASQDLWRRRPDFIAPGGIAFGQRERALCLRDYGWYLRLITFCLLAGDKDPIESIGLIGIREMYNSLGVPVPGMMESIRCLKEASLSLLDEEDAKETAPYFDYIIQAMS
Response given: 74,000 M^−1cm^−1

Challenge: // query: R7-7: evolved APCα FP, SEQ ID NO: 8, with BV (protein, biliverdin chromophore; smRUFP Variant Polypeptide) MKTCEQRVKIATLLSENKKKIVDKASQDLWRRHPDLIAPGGIAFSQRERALCLRDYGWYLHLITFCLLAGDKGPIESIGLIGIREMYNSLGVPVPGMMESIRCLKEASLSLLDEEDAKETAPYFDYIIKAIS
Response given: 250,000 M^−1cm^−1

Challenge: // query: R2-1 + PCB: evolved APCα FP, SEQ ID NO: 3, with PCB (protein, phycocyanobilin chromophore; smRUFP Variant Polypeptide) MKTGEQRVKIATLLSENEKKIVDKASQDLWRRRPDFIAPGGIAFGQRERALCLRDYGWYLRLITFCLLAGDKDPIESIGLIGVREMYNSLGVPVPGMVESIRCLKEASLSLLDEEDAKETAPYFDYIIQAMS
Response given: 65,000 M^−1cm^−1

Challenge: // query: R5-2: evolved APCα FP, SEQ ID NO: 6, with BV (protein, biliverdin chromophore; smRUFP Variant Polypeptide) MKTCEQRVKIATLLSENEKKIVDKASQDLWRRRPDFIAPGGIAFSQRERALCLRDHRWYLHLITFCLLAGDKDPIESIGLIGIREMYNSLGVPVPGMMESIRCLKEASLSLLDEEDAKETAPYFDYIIKAMS
Response given: 71,000 M^−1cm^−1

Challenge: // query: smURFP: small ultra-red fluorescent protein, SEQ ID NO: 13, homodimer, covalently attaches biliverdin (protein, homodimer; biliverdin chromophore; smRUFP Variant Polypeptide) MKTSEQRVNIATLLTENKKKIVDKASQDLWRRHPDLIAPGGIAFSQRDRALCLRDYGWFLHLITFCLLAGDKGPIESIGLISIREMYNSLGVPVPAMMESIRCLKEASLSLLDEEDANETAPYFDYIIKAMS
Response given: 180,000 M^−1cm^−1
